tested on: TRZSS: wheat, including spring and winter (Triticum aestivum); test: Post-emergent Test III, herbicidal activity in wheat and barley; type: in vivo; conditions: Triticum aestivum, post-emergence, 504 h; 70 g ai/ha; 21 days after application; read-out: Visual Gorowth Reduction (%) 21 days After Application TRZSS
Measured Attribute: pest or weed control at 70 g/ha

>  <Structure Notation>
COC(=O)c1nc(-c2ccc(Br)cc2F)c(F)c(N)c1Cl

>  <Target>
TRZSS: wheat, including spring and winter (Triticum aestivum)

>  <Measured Attribute>
pest or weed control at 70 g/ha

>  <Reading>
85 to 94%

$$$$
>  <Structure Notation>
COC(=O)c1nc(-c2ccc(I)c(F)c2)c(F)c(N)c1Cl

>  <Target>
TRZSS: wheat, including spring and winter (Triticum aestivum)

>  <Measured Attribute>
pest or weed control at 70 g/ha

>  <Reading>
60 to 74%

$$$$
>  <Structure Notation>
Nc1c(F)c(-c2cc(F)c(I)cc2F)nc(C(=O)O)c1Cl

>  <Target>
TRZSS: wheat, including spring and winter (Triticum aestivum)

>  <Measured Attribute>
pest or weed control at 70 g/ha

>  <Reading>
85 to 94%

$$$$
>  <Structure Notation>
C=Cc1c(C(=O)O)nc(-c2ccc(C(F)(F)F)c(F)c2)c(F)c1N

>  <Target>
TRZSS: wheat, including spring and winter (Triticum aestivum)

>  <Measured Attribute>
pest or weed control at 70 g/ha

>  <Reading>
60 to 74%

$$$$

---

# reported pest or weed control at 140 g/ha; entries follow
system: LAMSS; test: Post-emergent Test III, herbicidal activity in wheat and barley; type: in vivo; settings: post-emergence, 504 h; 140 g ai/ha; read-out: Visual Growth Reduction (%) 21 Days After Application LAMSS
Measured Attribute: pest or weed control at 140 g/ha

>  <Structure Notation>
Nc1c(F)c(-c2ccc(Br)c(F)c2F)nc(C(=O)O)c1Cl

>  <Reading>
85 to 94%

$$$$
>  <Structure Notation>
COC(=O)c1nc(-c2ccc(Br)c(F)c2F)cc(N)c1Cl

>  <Reading>
95 to 100%

$$$$
>  <Structure Notation>
COC(=O)c1nc(-c2ccc(F)cc2)c(F)c(N)c1Cl

>  <Reading>
95 to 100%

$$$$
>  <Structure Notation>
N#Cc1ccc(-c2nc(C(=O)O)c(Cl)c(N)c2F)cc1

>  <Reading>
95 to 100%

$$$$
>  <Structure Notation>
COC(=O)c1nc(-c2ccc(C#N)cc2)c(F)c(N)c1Cl

>  <Reading>
85 to 94%

$$$$
>  <Structure Notation>
COC(=O)c1nc(-c2ccc(Cl)c(F)c2)c(F)c(N)c1Cl

>  <Reading>
95 to 100%

$$$$
>  <Structure Notation>
Nc1c(F)c(-c2ccc(Cl)c(F)c2)nc(C(=O)O)c1Cl

>  <Reading>
95 to 100%

$$$$

---

system: MATSS: scented mayweed (Matricaria chamomilla), pineappleweed (Matricaria matricarioides); experiment: Post-emergent Test III, herbicidal activity in wheat and barley; assay type: in vivo; details: Matricaria chamomilla, post-emergence, 504 h; 70 g ai/ha; read-out: Visual Growth Reduction (%) 21 Days After Application MATSS
# reported pest or weed control at 70 g/ha; entries follow

>  <Structure Notation>
COC(=O)c1nc(-c2ccc(Br)c(F)c2F)c(F)c(N)c1Cl

>  <pest or weed control at 70 g/ha>
45 to 59%

$$$$
>  <Structure Notation>
Nc1c(F)c(-c2ccc(Br)cc2)nc(C(=O)O)c1Cl

>  <pest or weed control at 70 g/ha>
95 to 100%

$$$$
>  <Structure Notation>
COC(=O)c1nc(-c2ccc(C#N)cc2)c(F)c(N)c1Cl

>  <pest or weed control at 70 g/ha>
0 to 29%

$$$$
>  <Structure Notation>
COC(=O)c1nc(-c2ccc(F)cc2)c(F)c(N)c1Cl

>  <pest or weed control at 70 g/ha>
0 to 29%

$$$$

---

tested on: Key Broadleaf Weed and Crop Species; test: Post-emergent Test II herbicidal activity (Table 5); type: in vivo; conditions: post-emergence, 336 h; CHEAL: lambsquarters (Chenopodium album); application rate 140 g ai/ha; 14 days after application; read-out: Visual Growth Reduction (%) 14 Days After Application, CHEAL
Measured Attribute: pest or weed control at 140 g/ha

>  <Molecule>
C#Cc1ccc(-c2nc(N)c(OC)c(C(=O)O)n2)c(F)c1F [Compound 154]

>  <Reading>
45 to 59%

$$$$
>  <Molecule>
COC(=O)c1nc(-c2ccc(Br)c(F)c2F)c(F)c(N)c1Cl [Compound 109]

>  <Reading>
95 to 100%

$$$$
>  <Molecule>
Nc1cc(-c2ccc(I)c(F)c2F)nc(C(=O)O)c1Cl [Compound 38]

>  <Reading>
95 to 100%

$$$$
>  <Molecule>
COC(=O)c1nc(-c2ccc(I)cc2)nc(N)c1OC [Compound 18]

>  <Reading>
95 to 100%

$$$$
>  <Molecule>
COc1c(N)nc(-c2ccc(Br)cc2F)nc1C(=O)O [Compound 46]

>  <Reading>
95 to 100%

$$$$
>  <Molecule>
COC(=O)c1nc(-c2ccc(OC(F)F)c(F)c2F)c(F)c(N)c1Cl [Compound 103]

>  <Reading>
85 to 94%

$$$$
>  <Molecule>
Nc1c(F)c(-c2ccc(OC(F)F)cc2F)nc(C(=O)O)c1Cl [Compound 140]

>  <Reading>
0 to 29%

$$$$
>  <Molecule>
COC(=O)c1nc(-c2ccc(C(F)F)cc2)c(F)c(N)c1Cl [Compound 209]

>  <Reading>
95 to 100%

$$$$
>  <Molecule>
COC(=O)c1nc(-c2ccccc2)nc(N)c1OC [Compound 175]

>  <Reading>
30 to 44%

$$$$

---

tested on: Key Broadleaf Weed and Crop Species; assay: Post-emergent Test II herbicidal activity (Table 5); format: in vivo; conditions: post-emergence, 336 h; ABUTH: velvetleaf (Abutilon theophrasti); 140 g ai/ha; post-emergent; 14 days after application; read-out: Visual Growth Reduction (%) 14 Days After Application ABUTH

>  <Structure Notation>
COC(=O)c1nc(-c2ccc(OC(F)F)cc2)c(Cl)c(N)c1Cl

>  <pest or weed control at 140 g/ha>
85 to 94%

$$$$
>  <Structure Notation>
C=Cc1c(C(=O)OC)nc(-c2ccc(C#N)cc2)c(F)c1N

>  <pest or weed control at 140 g/ha>
75 to 84%

$$$$
>  <Structure Notation>
N#Cc1ccc(-c2nc(C(=O)O)c(Cl)c(N)c2F)c(F)c1

>  <pest or weed control at 140 g/ha>
0 to 29%

$$$$
>  <Structure Notation>
Nc1cc(-c2cc(F)c(Br)cc2F)nc(C(=O)O)c1Cl

>  <pest or weed control at 140 g/ha>
95 to 100%

$$$$
>  <Structure Notation>
Nc1c(Cl)c(C(=O)O)nc(-c2ccc(OC(F)F)cc2)c1Cl

>  <pest or weed control at 140 g/ha>
60 to 74%

$$$$
>  <Structure Notation>
COC(=O)c1nc(-c2cc(F)c(C(F)(F)F)cc2F)nc(N)c1OC

>  <pest or weed control at 140 g/ha>
75 to 84%

$$$$
>  <Structure Notation>
COC(=O)c1nc(-c2cc(F)ccc2F)c(F)c(N)c1Cl

>  <pest or weed control at 140 g/ha>
75 to 84%

$$$$
>  <Structure Notation>
COC(=O)c1nc(-c2cc(F)c(I)cc2F)cc(N)c1Cl

>  <pest or weed control at 140 g/ha>
95 to 100%

$$$$
>  <Structure Notation>
Cc1c(-c2ccc(C(F)(F)F)c(F)c2)nc(C(=O)O)c(Cl)c1N

>  <pest or weed control at 140 g/ha>
85 to 94%

$$$$

---

system: Key Broadleaf Weed and Crop Species; experiment: Post-emergent Test II herbicidal activity (Table 5); format: in vivo; conditions: post-emergence, 336 h; CHEAL: lambsquarters (Chenopodium album); application rate 140 g ai/ha; 14 days after application; read-out: Visual Growth Reduction (%) 14 Days After Application, CHEAL

>  <Structure Notation>
C#Cc1ccc(-c2nc(C(=O)OC)c(Cl)c(N)c2F)c(F)c1F

>  <pest or weed control at 140 g/ha>
75 to 84%

$$$$
>  <Structure Notation>
COc1c(N)nc(-c2ccc(I)cc2F)nc1C(=O)O

>  <pest or weed control at 140 g/ha>
95 to 100%

$$$$
>  <Structure Notation>
C#Cc1ccc(-c2nc(C(=O)O)c(Cl)c(N)c2F)c(F)c1

>  <pest or weed control at 140 g/ha>
75 to 84%

$$$$
>  <Structure Notation>
C=Cc1c(C(=O)OC)nc(-c2ccc(Cl)c(F)c2)c(F)c1N

>  <pest or weed control at 140 g/ha>
95 to 100%

$$$$
>  <Structure Notation>
C#Cc1ccc(-c2nc(C(=O)O)c(Cl)c(N)c2F)c(F)c1F

>  <pest or weed control at 140 g/ha>
0 to 29%

$$$$
>  <Structure Notation>
COC(=O)c1nc(-c2ccc(I)cc2F)nc(N)c1OC

>  <pest or weed control at 140 g/ha>
95 to 100%

$$$$
>  <Structure Notation>
COC(=O)c1nc(-c2ccc(I)cc2)cc(N)c1Cl

>  <pest or weed control at 140 g/ha>
95 to 100%

$$$$
>  <Structure Notation>
N#Cc1ccc(-c2nc(C(=O)O)c(Cl)c(N)c2F)cc1

>  <pest or weed control at 140 g/ha>
95 to 100%

$$$$
>  <Structure Notation>
COC(=O)c1nc(-c2ccc(OC(F)F)cc2F)c(F)c(N)c1Cl

>  <pest or weed control at 140 g/ha>
0 to 29%

$$$$
